Data provenance: PubChem BioAssay (NCI)

# System: HCC-2998 colon
# ASSAY_PROCEDURE: NCI-60 one-dose screen, 48 h
# ASSAY_CONTEXT: 10 µM
The panel holds about 83,000 compounds, 20% with a hit somewhere; the sample as a whole holds those more often. Calls of active or inactive are those of the source. The calls were made as follows: active = growth percent below 10; inactive = the rest.
Outcome codes: active, inactive

COMPOUND	TESTED_TARGET	CATEGORY_LABEL
CC(C)(C)OC(=O)N1CCC(O)[C@@H](O[Si](c2ccccc2)(c2ccccc2)C(C)(C)C)[C@H]1/C=C/c1ccccc1 (stereo partly drawn)	HCC-2998 colon	inactive
[2H]C1([2H])[C@H](C)O[C@H](C)C([2H])([2H])N1c1ccc(NC(=O)c2cccc(-c3ccc(OC(F)(F)F)cc3)c2C)cn1	HCC-2998 colon	inactive
COc1ccc(C2CC(=O)c3c(O)c(OC)c(OC)c(OC)c3O2)cc1O (stereo not drawn)	HCC-2998 colon	inactive
CCCCCc1ccc(C)cc1OC(=O)CCl	HCC-2998 colon	inactive
Cn1cc(-c2ncnc3ccc(-c4cnc(Cl)c(NS(C)(=O)=O)c4)cc23)c2ccccc21	HCC-2998 colon	inactive
COc1cnc2c(c1)C(=O)c1c-2n(CCCNC2=NCCS2)c(=O)c2cc(Cl)ccc12	HCC-2998 colon	active
COc1cc2nccc(Oc3ccc(NC(=O)C4(C(=O)Nc5ccc(F)cc5)CC4)cc3)c2cc1OC	HCC-2998 colon	inactive
Nc1ncnc2c1c(-c1cccc(OCc3ccccc3)c1)cn2C1CC(CN2CCC2)C1 (stereo not drawn)	HCC-2998 colon	inactive
Cc1nc2ccc(-n3ncc(C(=O)c4cc5ccccc5[nH]4)c3N)cc2[nH]1	HCC-2998 colon	inactive
CNC(=O)c1nn(C)c2c1C(C)(C)Cc1cnc(Nc3ccc(N4CCN(C)CC4)cc3)nc1-2	HCC-2998 colon	inactive
CC/C(=C(\c1ccc(OCCN2CCCCCCC2)cc1)c1ccc(OC(=O)C2CCCCC2)cc1)c1ccc(Cl)cc1	HCC-2998 colon	inactive
CCCCCCCCCCCC[n+]1ccccc1	HCC-2998 colon	active
Cc1cn(-c2cc(NC(=O)c3ccc(C)c(Nc4nccc(-c5cccnc5)n4)c3)cc(C(F)(F)F)c2)cn1	HCC-2998 colon	inactive
Cc1cc(C(=O)NOCCO)c(Nc2ccc(I)cc2F)n(C)c1=O	HCC-2998 colon	active
O=C(Cc1ccc(-c2ccc(OCCN3CCOCC3)cc2)cn1)NCc1ccccc1	HCC-2998 colon	active
CNC(=O)c1cc(Oc2cccc3nc(Nc4ccc(Cl)c(F)c4)ccc23)ccn1	HCC-2998 colon	inactive
O=C(Cc1ccccc1)Nc1nnc(NC2CCN(c3nnc(NC(=O)Cc4ccccc4)s3)CC2)s1	HCC-2998 colon	inactive
O=C1C=CC2(NN=C(c3ccccc3)N2c2cccc(Cl)c2)C(Cl)=C1 (stereo not drawn)	HCC-2998 colon	inactive
Cc1cccc(C)c1N1C(c2ccccc2)=NNC12C=CC(=O)c1c(O)cccc12 (stereo not drawn)	HCC-2998 colon	inactive
COC(=O)[C@@H](C)CNS(=O)(=O)N(c1cc(C(F)(F)F)cc(C(F)(F)F)c1)C1CCN(Cc2ccc(F)cc2)CC1	HCC-2998 colon	active
COCCN1CCN(Cc2ccc(-c3n[nH]c4c3C(=O)c3c(NC(=O)NN5CCOCC5)cccc3-4)cc2)CC1	HCC-2998 colon	active
CC(=O)C1CC(C)CCC1C(C)C (stereo not drawn)	HCC-2998 colon	inactive
C=C1C(=O)O[C@H]2[C@H]1CC/C(CNC(=O)c1cc3cc(OC)ccc3[nH]1)=C\CC[C@@]1(C)O[C@@H]21	HCC-2998 colon	active
Nc1c(C(=O)c2ccccc2)sc2nc(-c3cccs3)cc(-c3cccs3)c12	HCC-2998 colon	inactive
N#CC[C@H](C1CCCC1)n1cc(-c2ncnc3[nH]ccc23)cn1	HCC-2998 colon	inactive
Cn1cc(-c2[nH]c3cc(NC(=O)[C@H](N)C4CCCCC4)cc4c3c2C=NNC4=O)cn1	HCC-2998 colon	inactive
O=C(Nc1ccc(C(=O)Nc2ccc(C3=NCCCN3)cc2)cc1)Nc1ccc(C2=NCCCN2)cc1	HCC-2998 colon	inactive
CO[C@@H](C(=O)N1Cc2[nH]nc(NC(=O)c3ccc(N4CCN(C)CC4)cc3)c2C1)c1ccccc1	HCC-2998 colon	inactive
CC[C@H](Nc1ncnc2nc[nH]c12)c1nc2cccc(F)c2c(=O)n1-c1ccccc1	HCC-2998 colon	inactive
NC[C@@](O)(c1ccc(Cl)cc1)c1ccc(-c2cn[nH]c2)cc1	HCC-2998 colon	inactive
Cc1c(CN2CCN(C(=O)[C@H](C)O)CC2)sc2c(N3CCOCC3)nc(-c3cnc(N)nc3)nc12	HCC-2998 colon	active
O=c1nc2c(-c3nc4ccccc4s3)n[nH]n2c2sc3c(c12)CCCC3	HCC-2998 colon	inactive
CCNCCNc1cc(-c2ccc(Cl)c(Cl)c2)c(C#N)c2nc3ccccc3n12	HCC-2998 colon	active
C=CCn1c(=O)c2cnc(Nc3ccc(N4CCN(C)CC4)cc3)nc2n1-c1cccc(C(C)(C)O)n1	HCC-2998 colon	active
CC/C=C\C[C@H]1C/C=C2/C(=O)C=C[C@@H]2C/C=C\CCCC(=O)O1	HCC-2998 colon	active
CC(=Nc1ccccc1)C1=C(O)C(Cc2ccccc2)NC1=O (stereo not drawn)	HCC-2998 colon	active
Cc1cc(Nc2nc(N[C@@H](C)c3ncc(F)cn3)ncc2Cl)n[nH]1	HCC-2998 colon	inactive
Cc1cnc(NC(=O)Nc2cc(Br)c(C)cc2OC[C@@H]2CNCCO2)cn1	HCC-2998 colon	inactive
